assayed system: hERG potassium channel (Homo sapiens)
Sequence (Q12809 whole entry): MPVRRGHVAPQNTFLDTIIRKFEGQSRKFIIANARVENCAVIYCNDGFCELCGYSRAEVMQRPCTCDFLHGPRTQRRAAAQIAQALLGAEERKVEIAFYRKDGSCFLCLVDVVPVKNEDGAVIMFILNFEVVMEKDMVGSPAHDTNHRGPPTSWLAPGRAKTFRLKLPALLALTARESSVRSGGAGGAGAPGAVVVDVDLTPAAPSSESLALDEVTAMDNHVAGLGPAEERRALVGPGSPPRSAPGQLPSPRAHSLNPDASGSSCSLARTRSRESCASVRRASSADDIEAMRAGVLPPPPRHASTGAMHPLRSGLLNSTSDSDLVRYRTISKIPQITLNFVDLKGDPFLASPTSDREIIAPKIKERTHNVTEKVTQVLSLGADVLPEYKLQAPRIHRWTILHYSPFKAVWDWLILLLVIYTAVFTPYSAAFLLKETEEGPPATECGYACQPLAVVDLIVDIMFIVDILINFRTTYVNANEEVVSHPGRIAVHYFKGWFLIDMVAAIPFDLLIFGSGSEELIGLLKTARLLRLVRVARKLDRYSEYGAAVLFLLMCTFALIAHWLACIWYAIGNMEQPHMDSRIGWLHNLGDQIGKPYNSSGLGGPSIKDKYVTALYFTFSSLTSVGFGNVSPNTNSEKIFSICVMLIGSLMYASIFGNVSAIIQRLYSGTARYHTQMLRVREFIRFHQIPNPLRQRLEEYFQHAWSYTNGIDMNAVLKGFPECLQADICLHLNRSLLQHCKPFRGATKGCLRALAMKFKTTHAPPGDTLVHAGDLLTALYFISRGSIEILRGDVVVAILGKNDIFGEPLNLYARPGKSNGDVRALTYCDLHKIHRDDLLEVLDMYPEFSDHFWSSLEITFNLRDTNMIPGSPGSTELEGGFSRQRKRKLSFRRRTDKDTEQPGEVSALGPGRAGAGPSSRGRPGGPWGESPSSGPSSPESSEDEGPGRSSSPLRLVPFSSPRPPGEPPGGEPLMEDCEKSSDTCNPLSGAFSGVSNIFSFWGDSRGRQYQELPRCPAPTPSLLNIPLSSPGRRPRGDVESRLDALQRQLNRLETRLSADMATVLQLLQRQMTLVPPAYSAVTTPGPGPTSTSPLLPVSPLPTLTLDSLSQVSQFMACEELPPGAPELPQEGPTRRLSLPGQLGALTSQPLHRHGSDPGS
test summary: Whole cell patch clamp, HEK 293 T-REx HERG cells
readout name: IC50 (µM)
Give the value, in units of µM, as a plain number.

Query: Could you tell me which IC50 is on file for CN(CCCN1c2ccccc2CCc2ccccc21)C(=O)c1cc2cc(Cl)ccc2o1 ?
Response: 20
